target: FGFR2 (Homo sapiens, UniProt P21802); test: In vitro activity inhibition test for kinase FGFR2; assay type: biochemical; details: kinase assay, 25° C.; read-out: Inhibition of separase IC50 (nM) FGFR2
Sequence (P21802 22-821): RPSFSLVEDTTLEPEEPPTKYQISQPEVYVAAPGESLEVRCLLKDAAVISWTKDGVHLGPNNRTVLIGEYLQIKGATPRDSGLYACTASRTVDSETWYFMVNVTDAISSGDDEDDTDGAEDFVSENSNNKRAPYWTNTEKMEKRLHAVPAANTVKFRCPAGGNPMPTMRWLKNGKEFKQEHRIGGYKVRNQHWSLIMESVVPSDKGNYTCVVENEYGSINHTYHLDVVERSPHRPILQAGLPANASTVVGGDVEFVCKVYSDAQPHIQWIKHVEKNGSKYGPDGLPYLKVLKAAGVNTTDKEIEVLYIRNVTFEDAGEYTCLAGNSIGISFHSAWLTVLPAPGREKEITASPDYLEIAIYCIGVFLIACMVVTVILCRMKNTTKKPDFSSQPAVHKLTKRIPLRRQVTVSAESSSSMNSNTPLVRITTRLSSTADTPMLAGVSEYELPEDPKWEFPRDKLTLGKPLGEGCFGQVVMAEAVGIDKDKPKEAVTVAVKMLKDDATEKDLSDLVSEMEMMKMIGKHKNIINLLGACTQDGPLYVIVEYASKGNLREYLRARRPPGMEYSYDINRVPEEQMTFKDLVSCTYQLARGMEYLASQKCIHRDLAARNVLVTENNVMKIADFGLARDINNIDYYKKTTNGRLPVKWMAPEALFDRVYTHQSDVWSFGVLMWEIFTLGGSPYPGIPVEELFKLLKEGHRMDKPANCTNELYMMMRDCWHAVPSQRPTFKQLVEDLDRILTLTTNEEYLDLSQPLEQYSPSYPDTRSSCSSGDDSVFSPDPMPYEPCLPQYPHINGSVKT
reported.metric: IC50

Consider the following illustrative entries.
C=CC(=O)N1CC2(CC(Nc3nc(N)c(C(N)=O)c(C#Cc4cc(OC)cc(OC)c4)n3)C2)C1 ... 10 to 100 nM
C=CC(=O)N1CC[C@H](n2cc(-c3cc4cc(C)cc(OC)c4s3)c3c(N)n[nH]c(=O)c32)C1 ... < 10 nM
C=CC(=O)N1CC[C@H](n2cc(C#Cc3cc(OC)cc(OC)c3)c3c(N)n[nH]c(=O)c32)C1 ... < 10 nM

Return IC50 for the following molecule: `C=CC(=O)N1CC[C@H](n2cc(-c3cn(C)c4ccccc34)c3c(N)n[nH]c(=O)c32)C1`
< 10 nM

----------
biological target: FGFR3 (Homo sapiens, UniProt P22607); test: In vitro activity inhibition test for kinase FGFR3;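 note: FGFR3 kinase activity read by Caliper mobility shift assay, compounds run as 10-point 4-fold dilution series, final DMSO 0.5%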
Sequence (P22607 23-806): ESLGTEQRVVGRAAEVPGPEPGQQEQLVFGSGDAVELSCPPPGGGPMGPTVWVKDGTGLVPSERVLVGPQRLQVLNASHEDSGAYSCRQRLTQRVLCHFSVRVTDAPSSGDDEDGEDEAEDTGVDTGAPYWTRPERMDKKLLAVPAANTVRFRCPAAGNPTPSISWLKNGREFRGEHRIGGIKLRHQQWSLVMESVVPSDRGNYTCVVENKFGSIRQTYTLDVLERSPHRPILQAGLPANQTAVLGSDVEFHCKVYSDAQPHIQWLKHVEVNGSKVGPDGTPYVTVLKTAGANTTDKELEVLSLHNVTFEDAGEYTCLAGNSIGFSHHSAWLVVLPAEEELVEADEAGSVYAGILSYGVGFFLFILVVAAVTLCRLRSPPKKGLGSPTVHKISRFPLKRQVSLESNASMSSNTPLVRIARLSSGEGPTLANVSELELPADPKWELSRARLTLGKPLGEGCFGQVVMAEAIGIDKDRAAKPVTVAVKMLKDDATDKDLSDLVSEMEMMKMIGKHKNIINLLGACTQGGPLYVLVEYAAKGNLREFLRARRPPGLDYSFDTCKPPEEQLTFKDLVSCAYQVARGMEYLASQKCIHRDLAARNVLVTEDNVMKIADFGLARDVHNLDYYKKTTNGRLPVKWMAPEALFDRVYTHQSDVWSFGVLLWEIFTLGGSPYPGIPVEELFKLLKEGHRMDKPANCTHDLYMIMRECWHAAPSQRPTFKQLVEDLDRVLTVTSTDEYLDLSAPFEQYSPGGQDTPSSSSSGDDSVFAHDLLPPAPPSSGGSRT
pIC50: −log10 of the molar value.
reported.metric: pIC50

C=CC(=O)N1CCC2(CC1)CC(Nc1nc(N)c(C(N)=O)c(C#Cc3cc(OC)cc(OC)c3)n1)C2 [Compound 9] ... 7.00 to 8.00

State its pIC50: C=CC(=O)N1CC[C@H](n2cc(C#Cc3cc(OC)cc(OC)c3)c3c(N)n[nH]c(=O)c32)C1 [Compound 22]
> 8.00

Report pIC50, nothing else, for this compound: C=CC(=O)N1CCC2(CC(Nc3nc(N)c(C(N)=O)c(C#Cc4cc(OC)cc(OC)c4)n3)C2)C1 (stereo not shown) [Compound 8]
7.00 to 8.00

Give the reported pIC50 for this compound. C=CC(=O)N1CCC(c2nc(N)c(C(N)=O)c(C#Cc3cc(OC)cc(OC)c3)n2)C1 (stereo not shown) [Compound 18]
> 8.00

----------
target: FGFR4 (Homo sapiens); experiment: In vitro activity inhibition test for kinase FGFR4
Sequence (P22455 22-802): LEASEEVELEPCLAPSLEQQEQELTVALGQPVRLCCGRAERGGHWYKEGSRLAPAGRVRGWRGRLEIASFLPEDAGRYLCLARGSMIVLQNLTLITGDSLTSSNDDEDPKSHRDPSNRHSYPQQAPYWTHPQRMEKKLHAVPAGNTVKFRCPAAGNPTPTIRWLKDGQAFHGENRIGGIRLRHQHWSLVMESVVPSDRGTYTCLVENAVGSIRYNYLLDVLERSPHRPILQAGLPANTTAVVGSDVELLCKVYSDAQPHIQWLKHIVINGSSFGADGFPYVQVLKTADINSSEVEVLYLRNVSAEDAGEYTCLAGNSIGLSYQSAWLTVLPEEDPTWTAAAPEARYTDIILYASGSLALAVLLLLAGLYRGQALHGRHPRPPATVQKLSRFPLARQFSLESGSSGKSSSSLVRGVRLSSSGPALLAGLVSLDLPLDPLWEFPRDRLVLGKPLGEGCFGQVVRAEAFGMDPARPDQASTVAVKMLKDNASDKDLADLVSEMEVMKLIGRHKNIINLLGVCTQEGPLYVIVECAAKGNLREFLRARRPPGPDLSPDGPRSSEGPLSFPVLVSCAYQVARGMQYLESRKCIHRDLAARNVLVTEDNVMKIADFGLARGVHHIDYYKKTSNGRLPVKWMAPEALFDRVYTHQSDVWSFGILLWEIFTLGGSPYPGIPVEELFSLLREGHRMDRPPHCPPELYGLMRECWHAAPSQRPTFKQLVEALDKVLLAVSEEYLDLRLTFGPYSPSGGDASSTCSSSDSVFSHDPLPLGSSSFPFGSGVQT
// reported IC50 per item

Here is how some compounds turned out for IC50.
C=CC(=O)N1CC[C@H](Nc2ncc(C(N)=O)c(C#Cc3cc(OC)cc(OC)c3)n2)C1 ... 10 to 100 nM
CC#CC(=O)N1CC[C@H](n2cc(C#Cc3cc(OC)cc(OC)c3)c3c(N)n[nH]c(=O)c32)C1 ... < 10 nM
CC#CC(=O)N1CCC[C@H](n2cc(C#Cc3cc(OC)cc(OC)c3)c3c(N)n[nH]c(=O)c32)C1 ... < 10 nM
C=CC(=O)N1CC[C@H](Nc2nc(N)c(C(N)=O)c(C#Cc3cc(OC)cc(OC)c3)n2)C1 ... < 10 nM
C=CC(=O)N1CC[C@H](Nc2ncc(Br)c(C#Cc3cc(OC)cc(OC)c3)n2)C1 ... 100 to 500 nM
CC#CC(=O)N1CC[C@H](Nc2ncc(C(F)(F)F)c(C#Cc3cc(OC)cc(OC)c3)n2)C1 ... 10 to 100 nM
C=CC(=O)N1CC[C@H](Nc2ncc(C#N)c(C#Cc3cc(OC)cc(OC)c3)n2)C1 ... 10 to 100 nM
C=CC(=O)N1CC[C@H](n2cc(-c3cc4ccccc4n3C)c3c(N)n[nH]c(=O)c32)C1 ... < 10 nM

Determine its reported IC50: `C=CC(=O)N1CC[C@H](n2cc(-c3cn(C)c4ccccc34)c3c(N)n[nH]c(=O)c32)C1`
< 10 nM

----------
target: FGFR4 (Homo sapiens); assay: In vitro activity inhibition test for kinase FGFR4;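 note: caliper mobility shift assay of FGFR4 kinase activity, compounds tested as 10-point 4-fold dilution series with 0.5% DMSO final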
reported.metric: IC50

Previously resolved entries follow.
C=CC(=O)N1CCC(Nc2nc(N)c(C(N)=O)c(C#Cc3cc(OC)cc(OC)c3)n2)CC1 [Compound 10] ... 0.01 to 0.1 µM
C=CC(=O)N1CC[C@@H](Nc2nc(N)c(C(N)=O)c(C#Cc3cc(OC)cc(OC)c3)n2)C1 [Compound 15] ... < 0.01 µM

Would you kindly look at the next entry?
Identify the reported IC50 for the following entry. C=CC(=O)N1CC[C@H](n2nc(C#Cc3cc(OC)cc(OC)c3)c3c(N)n[nH]c(=O)c32)C1 [Compound 26]
< 0.01 µM

----------
target: FGFR3 (Homo sapiens); assay: In vitro activity inhibition test for kinase FGFR3
Catalogue of IC50 values

C=CC(=O)N1CC[C@H](n2nc(C#Cc3c(Cl)c(OC)cc(OC)c3Cl)c3c(N)n[nH]c(=O)c32)C1 [Compound 30] ... < 10 nM

Answer with reported IC50 of CC#CC(=O)N1CC[C@H](Nc2ncc(Br)c(C#Cc3cc(OC)cc(OC)c3)n2)C1 [Compound 13]
10 to 100 nM

Input C=CC(=O)N1CC[C@H](n2nc(C#Cc3cc(OC)cc(OC)c3)c3c(N)n[nH]c(=O)c32)C1 [Compound 26] , output reported IC50.
< 10 nM

Name the recorded IC50 of the item CC#CC(=O)N1CC[C@H](n2cc(-c3ccc4ccccc4c3)c3c(N)n[nH]c(=O)c32)C1 [Compound 39] in your answer.
< 10 nM

// Input: C=CC(=O)N1CCC[C@H](Nc2nc(N)c(C(N)=O)c(C#Cc3cc(OC)cc(OC)c3)n2)C1 [Compound 11] . Output its IC50 only.
100 to 500 nM

Annotate the molecule C=CC(=O)N1CC[C@H](n2cc(-c3cc4cc(C)cc(OC)c4s3)c3c(N)n[nH]c(=O)c32)C1 [Compound 38] with its measured IC50.
< 10 nM

----------
Below, each entry is listed alongside its reported IC50.
molecular target: FGFR3 (Homo sapiens); test: In vitro activity inhibition test for kinase FGFR3

CC#CC(=O)N1CC[C@H](n2cc(C#Cc3cc(OC)cc(OC)c3)c3c(N)n[nH]c(=O)c32)C1 ... < 0.01 µM

Quote IC50 reported for `C=CC(=O)N1CCC[C@H](n2nc(C#Cc3cc(OC)cc(OC)c3)c3c(N)n[nH]c(=O)c32)C1` please.
< 0.01 µM

Return IC50 (reported value) for this compound: `C=CC(=O)N1CC[C@H](Nc2ncc(C#N)c(C#Cc3cc(OC)cc(OC)c3)n2)C1`
0.1 to 0.5 µM

Please supply the value of reported IC50 for the item `C=CC(=O)N1CC[C@H](Nc2nc(N)c(C(N)=O)c(C#Cc3cc(OC)cc(OC)c3)n2)C1`
< 0.01 µM

Give reported IC50 value for `CC#CC(=O)N1CC[C@H](Nc2ncc(C(F)(F)F)c(C#Cc3cc(OC)cc(OC)c3)n2)C1`
0.1 to 0.5 µM

Query IC50 for `C=CC(=O)N1CC2(CC(Nc3nc(N)c(C(N)=O)c(C#Cc4cc(OC)cc(OC)c4)n3)C2)C1`
0.01 to 0.1 µM

Find the measured IC50 of `C=CC(=O)N1CC[C@H](Nc2ncc(C(N)=O)c(C#Cc3cc(OC)cc(OC)c3)n2)C1` and report it.
0.01 to 0.1 µM

Answer with the recorded IC50 of `C=CC(=O)N1CC[C@@H](Nc2nc(N)c(C(N)=O)c(C#Cc3cc(OC)cc(OC)c3)n2)C1` only.
< 0.01 µM

Read off the recorded IC50 for `CC#CC(=O)N1CCC[C@H](n2cc(C#Cc3cc(OC)cc(OC)c3)c3c(N)n[nH]c(=O)c32)C1`
< 0.01 µM
